The values you see were collected from the supplement of paper PMC9170038.

# Test system: MS2 coat protein
# assay_notes: apparent KD of MS2 coat protein; designed switch direction (-1 OFF switch, 1 ON switch): -1; higher = weaker reporter binding
# measurement_context: input ligand: FMN 200 uM
Listing of entries alongside the reported apparent KD of MS2 coat protein.
attribute_measured: apparent KD of MS2 coat protein (nM)

primary_sequence	attribute_measured	result_number
ACACCACAUGAGGAUCACCCAUGUAAGGAUAUAACGCAUCCGCGUAACUGCGGGCAAGUUAGAAGGUGUAUGGG [Eternabot (L2) Solution 91] (Eterna round: R97, puzzle: Exclusion 1)	apparent KD of MS2 coat protein	91.9
GUUGUUUAUGUAGGAUAUGCCUGGCGUGCCUUUGCAGAAGGACAUGAGGAUCACCCAUGUAACAUGAGGCUCACCCAUGUCGCC [salish99_ExNG1_r04_108] (Eterna round: R96, puzzle: Exclusion NG 1)	apparent KD of MS2 coat protein	220
CACGUGAGAGGAUAUACAUGAGGAUCACCCAUGUAUACAGCAGGGUAUGAAGACUUGGGUAGAAGGCUCGCGUG [Eternabot (L2) Solution 39] (Eterna round: R97, puzzle: Exclusion 3)	apparent KD of MS2 coat protein	173
GGUGAGCUAGGAUAUGCUUUGGGAAAGCAUUCCUUCGAUAAACUUGAGGAUCACCCAAGUAGAAGGAGCUUGCC [salish99_ex2_r4_019] (Eterna round: R97, puzzle: Exclusion 2)	apparent KD of MS2 coat protein	18.7
CACGAAUAGUGAGGAUAUGUGCGACAAAGUUGCACAGAAGGCACAUGAGGAUCACCCAUGUAAGCUAGGUCGAAAGACCUAGCG [Omei Exc(NG)1 A] (Eterna round: R96, puzzle: Exclusion NG 1)	apparent KD of MS2 coat protein	37.4
GGAGGAAGAGAGGAUAUGCACUCAAGGAGAAAAGCAGAAGGUUCAACAUGAGGAUCACCCAUGUAUGAUCCUCA [AK-MS2ROC-r4-exclusion6-3] (Eterna round: R97, puzzle: Exclusion 6)	apparent KD of MS2 coat protein	247
UGUGUGAGACAGGAUAUGCCGGAUGAAAUGCAGGUAGAAGGGUCUACAUGAGGAUCACCCAUGUGGCCGGUUGG [Ex6 #75] (Eterna round: R97, puzzle: Exclusion 6)	apparent KD of MS2 coat protein	18.9
CGUCUGUCAGGAUAUAGUUACAUAGACAUGAGGAUCACCCAUGUGACGUGGGACUAGUGACUAGAAGGGACGAACG [EX5 #71] (Eterna round: R97, puzzle: Exclusion 5)	apparent KD of MS2 coat protein	58.7
AAAAAACAAGCUUUUUGAAACAUGAGGAUCACCCAUGUCUUAUAAAAUAAAAAUAAAAAUAAAAAUAAAAUAAAAAA [Sensor V2: 80 Random] (Eterna round: R96, puzzle: Sensor v2, turn-off variant)	apparent KD of MS2 coat protein	36.2
AACACACAUGAGGAUCACCCAUGUGAGGAUAUCGUCGAGGUUGUAAUGCCAACCGUGACGAGAAGGCACUUGGG [Exclusion 1 (Mod 3.1 solution 40 by Eternabot)] (Eterna round: R97, puzzle: Exclusion 1)	apparent KD of MS2 coat protein	44.4
